# method notes: Pharmacokinetics in AAV8-Ctrl mice
# condition summary: C57BL/6J, mouse, serum, po, 16.5 mg/kg, Tmax, carvedilol 7.5 mg/kg 0.5 h before aumolertinib 16.5 mg/kg oral (Car+Aum)
endpoint: Tmax (h)
Please give a number only; it is taken to be in h.

Indicate the recorded Tmax value for this molecule: C=CC(=O)Nc1cc(Nc2nccc(-c3cn(C4CC4)c4ccccc34)n2)c(OC)cc1N(C)CCN(C)C
17.7

----------
# method notes: Pharmacokinetics in AAV8-CYP3A4*1 mice
# condition summary: C57BL/6J, mouse, in vivo, po, 16.5 mg/kg, AUC(0-∞), carvedilol 7.5 mg/kg 0.5 h before aumolertinib 16.5 mg/kg oral (Car+Aum)
endpoint: AUC(0-inf)
Number first, unit second.

Return reported AUC(0-inf). Input compound: C=CC(=O)Nc1cc(Nc2nccc(-c3cn(C4CC4)c4ccccc34)n2)c(OC)cc1N(C)CCN(C)C [Aumolertinib]
1970 ng·h/mL

----------
# method notes: Pharmacokinetics of aumolertinib and HAS-719 in SD rats
# condition summary: Sprague-Dawley, rat, plasma, po, 11 mg/kg, Tmax, aumolertinib 11 mg/kg oral alone (Aum)
endpoint: Tmax
Answers without a unit are incomplete; give the number and then its unit.

Return reported Tmax. Input compound: C=CC(=O)Nc1cc(Nc2nccc(-c3cn(C4CC4)c4ccccc34)n2)c(OC)cc1N(C)CCN(C)C
5.17 h

----------
# method notes: Pharmacokinetics in AAV8-CYP3A4*1 mice
# condition summary: C57BL/6J, mouse, in vivo, po, 16.5 mg/kg, AUC(0-t), carvedilol 7.5 mg/kg 0.5 h before aumolertinib 16.5 mg/kg oral (Car+Aum)
endpoint: AUC(0-t) (ng·h/mL)
Expressed in ng·h/mL, but write only the number.

Answer with the recorded AUC(0-t) of C=CC(=O)Nc1cc(Nc2nccc(-c3cn(C4CC4)c4ccccc34)n2)c(OC)cc1N(C)CCN(C)C [Aumolertinib] only.
1730

----------
# method notes: Pharmacokinetics in AAV8-Ctrl mice
# condition summary: C57BL/6J, mouse, serum, po, 16.5 mg/kg, AUC(0-∞), telmisartan 12 mg/kg 0.5 h before aumolertinib 16.5 mg/kg oral (Tel+Aum)
endpoint: AUC(0-inf) (ng·h/mL)
Quick note: give the figure in ng·h/mL, leave out the unit.

Provide one value: measured AUC(0-inf) of C=CC(=O)Nc1cc(Nc2nccc(-c3cn(C4CC4)c4ccccc34)n2)c(OC)cc1N(C)CCN(C)C
3810

----------
# method notes: Pharmacokinetics in AAV8-CYP3A4*1 mice
# condition summary: C57BL/6J, mouse, in vivo, po, 16.5 mg/kg, AUC(0-∞), aumolertinib 16.5 mg/kg oral alone (Aum)
endpoint: AUC(0-inf) (ng·h/mL)
Enter your answer as a number in ng·h/mL; do not include the unit.

Could you please provide reported AUC(0-inf) for C=CC(=O)Nc1cc(Nc2nccc(-c3cn(C4CC4)c4ccccc34)n2)c(OC)cc1N(C)CCN(C)C ? Thanks!
1390

----------
# method notes: Pharmacokinetics in AAV8-CYP3A4*1 mice
# condition summary: C57BL/6J, mouse, in vivo, po, 16.5 mg/kg, t1/2z, aumolertinib 16.5 mg/kg oral alone (Aum)
endpoint: half-life (h)
Numeric only. Scale: h

Tell us which half-life value is on record for C=CC(=O)Nc1cc(Nc2nccc(-c3cn(C4CC4)c4ccccc34)n2)c(OC)cc1N(C)CCN(C)C
7.89

----------
# method notes: Pharmacokinetics in AAV8-CYP3A4*1 mice
# condition summary: C57BL/6J, mouse, in vivo, po, 16.5 mg/kg, AUC(0-t), aumolertinib 16.5 mg/kg oral alone (Aum)
endpoint: AUC(0-t) (ng·h/mL)
Return type: number; implicit unit ng·h/mL.

State its AUC(0-t): C=CC(=O)Nc1cc(Nc2nccc(-c3cn(C4CC4)c4ccccc34)n2)c(OC)cc1N(C)CCN(C)C
1370

----------
# method notes: Pharmacokinetics in AAV8-CYP3A4*12 mice
# condition summary: C57BL/6J, mouse, serum, po, 16.5 mg/kg, CLz/F, aumolertinib 16.5 mg/kg oral alone (Aum)
endpoint: CL/F

Report measured CL/F; entry is C=CC(=O)Nc1cc(Nc2nccc(-c3cn(C4CC4)c4ccccc34)n2)c(OC)cc1N(C)CCN(C)C
87.2 mL/min/kg

----------
# method notes: Pharmacokinetics in AAV8-CYP3A4*1 mice
# condition summary: C57BL/6J, mouse, in vivo, po, 16.5 mg/kg, t1/2z, telmisartan 12 mg/kg 0.5 h before aumolertinib 16.5 mg/kg oral (Tel+Aum)
endpoint: half-life (h)
Answer in h, number only, no unit symbol.

Annotate the compound C=CC(=O)Nc1cc(Nc2nccc(-c3cn(C4CC4)c4ccccc34)n2)c(OC)cc1N(C)CCN(C)C [Aumolertinib] with its measured half-life.
5.75

----------
# method notes: Pharmacokinetics in AAV8-CYP3A4*1 mice
# condition summary: C57BL/6J, mouse, in vivo, po, 16.5 mg/kg, CLz/F, aumolertinib 16.5 mg/kg oral alone (Aum)
endpoint: CL/F
Record the result as a number with its unit.

Recall and state the measured CL/F for C=CC(=O)Nc1cc(Nc2nccc(-c3cn(C4CC4)c4ccccc34)n2)c(OC)cc1N(C)CCN(C)C .
221 mL/min/kg

----------
# method notes: Pharmacokinetics of aumolertinib and HAS-719 in SD rats
# condition summary: Sprague-Dawley, rat, plasma, po, 11 mg/kg, AUC(0-t), telmisartan 8 mg/kg oral 0.5 h before aumolertinib 11 mg/kg oral (Tel + Aum)
endpoint: AUC(0-t) (ng·h/mL)
Field format: number, assumed ng·h/mL, no unit text.

Return value of AUC(0-t) for input C=CC(=O)Nc1cc(Nc2nccc(-c3cn(C4CC4)c4ccccc34)n2)c(OC)cc1N(C)CCN(C)C , no commentary.
153

----------
# method notes: Pharmacokinetics of aumolertinib and HAS-719 in SD rats
# condition summary: Sprague-Dawley, rat, plasma, po, 11 mg/kg, AUC(0-t), aumolertinib 11 mg/kg oral alone (Aum)
endpoint: AUC(0-t) (ng·h/mL)
Use ng·h/mL as the unit, but write only the number.

For the molecule C=CC(=O)Nc1cc(Nc2nccc(-c3cn(C4CC4)c4ccccc34)n2)c(OC)cc1N(C)CCN(C)C , report AUC(0-t).
65.9

----------
# System: aumolertinib metabolism in human liver microsomes
# method notes: Inhibition of aumolertinib metabolism in human liver microsomes (IC50, Ki)
# Type: in vitro ADME
# condition summary: human, human liver microsomes, probe aumolertinib 20 μM
endpoint: IC50 at 30 min (µM)
Just the number please, in µM, no unit attached.

Give me measured IC50 at 30 min, please, for this compound: COc1ccccc1OCCNCC(O)COc1cccc2[nH]c3ccccc3c12 (stereo not shown)
12.7

----------
# method notes: Pharmacokinetics in AAV8-Ctrl mice
# condition summary: C57BL/6J, mouse, serum, po, 16.5 mg/kg, Vz/F, carvedilol 7.5 mg/kg 0.5 h before aumolertinib 16.5 mg/kg oral (Car+Aum)
endpoint: Vd/F (L/kg)
Output spec: scalar in L/kg, unitless text.

Respond only with Vd/F recorded for C=CC(=O)Nc1cc(Nc2nccc(-c3cn(C4CC4)c4ccccc34)n2)c(OC)cc1N(C)CCN(C)C
38.6

----------
# method notes: Pharmacokinetics of aumolertinib and HAS-719 in SD rats
# condition summary: Sprague-Dawley, rat, plasma, po, 11 mg/kg, Cmax, carvedilol 5 mg/kg oral 0.5 h before aumolertinib 11 mg/kg oral (Car + Aum)
endpoint: Cmax
Number first, unit second: that is the form wanted.

Please indicate Cmax recorded for C=CC(=O)Nc1cc(Nc2nccc(-c3cn(C4CC4)c4ccccc34)n2)c(OC)cc1N(C)CCN(C)C
21.8 ng/mL

----------
# method notes: Pharmacokinetics in AAV8-CYP3A4*1 mice
# condition summary: C57BL/6J, mouse, in vivo, po, 16.5 mg/kg, CLz/F, telmisartan 12 mg/kg 0.5 h before aumolertinib 16.5 mg/kg oral (Tel+Aum)
endpoint: CL/F

Kindly indicate its recorded CL/F. Item: C=CC(=O)Nc1cc(Nc2nccc(-c3cn(C4CC4)c4ccccc34)n2)c(OC)cc1N(C)CCN(C)C
6.59 L/h/kg

----------
# method notes: Pharmacokinetics in AAV8-Ctrl mice
# condition summary: C57BL/6J, mouse, serum, po, 16.5 mg/kg, t1/2z, telmisartan 12 mg/kg 0.5 h before aumolertinib 16.5 mg/kg oral (Tel+Aum)
endpoint: half-life (h)
Express it in h; write the number only.

Look up and report measured half-life for this entry: C=CC(=O)Nc1cc(Nc2nccc(-c3cn(C4CC4)c4ccccc34)n2)c(OC)cc1N(C)CCN(C)C [Aumolertinib]
9.43

----------
# Tested on: aumolertinib metabolism in rat liver microsomes
# method notes: in vitro
# condition summary: probe aumolertinib 25 μM
endpoint: IC50 at 30 min (µM)
Give the value in µM but do not write µM after it.

Provide IC50 at 30 min value for the following compound: COc1ccccc1OCCNCC(O)COc1cccc2[nH]c3ccccc3c12 (centres unmarked)
27.3

Fill in reported IC50 at 30 min for this entry: CCCc1nc2c(C)cc(-c3nc4ccccc4n3C)cc2n1Cc1ccc(-c2ccccc2C(=O)O)cc1
12.8
